These entries and their values trace back to the nanobody polyreactivity screen of Harvey et al. (2022).

experiment: yeast display, Sf9 membrane polyspecificity reagent, FACS + sequencing; frameworks hold sequencing errors

{"item sequence": "QVQLVESGGGLVQAGGSLRLSCAASGRTFARHVMGWYCQAPGKVRELVAGITTSGGSTYYADSVKGRFTISRDNPKNTGYFQMNSLKPEDTAVYYCATDRQRYYRTVRSPIFNYWGQGTQVTVSS", "polyreactivity (PSR sort gate)": "high polyreactivity"}
{"item sequence": "QVQLVESGGGLVQAGGSLRLSCAASGFTFGRYAMGWYRQAPGKERELVATISRSGGRTYYADSVKGRFTISRDIAKKTVYLQMNSLKPEDTAVYYCAADTRNYPRYDYWGQGTQVTVSS", "polyreactivity (PSR sort gate)": "high polyreactivity"}
{"item sequence": "QVQLVESGGGLVQAGGSLRLSCASSGSTFPPYAMGWYRQAPGKERELVAAISYRDTGTYYADSVKGRFTISRDNAKNTVYFQMNSLKPEDTAVYYCAADYHIVYYFLYYYWGQGTQVTVSS", "polyreactivity (PSR sort gate)": "low polyreactivity"}
{"item sequence": "QVQLVESGGGLVQAGGSLRLSCAASGSTFSIYTMGWYRQAPGKERELVAAITRGGSTYYADSVKGRFTISRDNAKNTVYLQMNSLKPEDTAVYYCAADYVSYYRGGRYIELDYWGQGTQVTVSS", "polyreactivity (PSR sort gate)": "low polyreactivity"}
{"item sequence": "QVQLVESGGGLVQAGGSLRLSCAASGGIFYRYVMRWYRQAPGKERELVAAITFSGGSTYYSDSVKGRFTISRDNAKNTVYLQMNSLKPEDTAVYYCAADTYYNPYWLDYWGQGTQVTVSS", "polyreactivity (PSR sort gate)": "low polyreactivity"}

----------
assay: yeast display, Sf9 membrane polyspecificity reagent, FACS + sequencing; frameworks hold sequencing errors
measured attribute: polyreactivity (PSR sort gate)

{"item sequence": "QVQLVESGGGLFQAGGSLRLICAASGFIFGGSDMGWYRQAPGKERELVAAISRSGGSTYYADYVKGRFTISRDNAKNTVYLQMNSMKREDTAVYYCNSVPRRQGFNYLGQGTQVTVSS", "observed value": "high polyreactivity"}
{"item sequence": "QVQLVESGGGLDQAGGSLRLRCAPSGRIFSYVMGWYRQAPGKERELVAAISGGVRTYYADSVKGRFTISRDNAKNTVYLQMNSLKPEDTAVYYCNADWYRKRNYWGQGTQVTVSS", "observed value": "high polyreactivity"}

----------
test: yeast display, Sf9 membrane polyspecificity reagent, FACS + sequencing; frameworks hold sequencing errors

{"item sequence": "QVQLVESGGGLVQAGGSLRLSCAASVSTFKPYAMGWYRQAPGKERELVSAISGSGGSTYYADSVKGRFTISRDNAKNTVYLQMNSLKPEDTAVYYCAARFYVSYYYFGYEYWGQGTQVTVSS", "polyreactivity (PSR sort gate)": "high polyreactivity"}
{"item sequence": "QVQLVESGGGLVQAGGSLRLSCAASGFTFAYYAMGWYRQAPGKERELVAAISSRGGSTYADSVKGRFTISRDNAKNTVYLQMNSLKPEDTAVYYCNAVVPRSRYFSWTYDYWGQGTQVTVSS", "polyreactivity (PSR sort gate)": "high polyreactivity"}
{"item sequence": "QVQLVESGGGLVQAGGSLRLSCAAPGSIFPRYAMGWYRPAPGKERELVAAISRSGGSTYYADSVKGRFTISRDNAKNTVYLQMNSLKPEDTAVYYCATDKVSHRRYDYWGQGTQVTVSS", "polyreactivity (PSR sort gate)": "high polyreactivity"}
{"item sequence": "QVQLVESGGGLVQAGGSLRLSCAASGRIYDYNTMGWYRKAPGKERELVAAITGGTGSTYYADSVKGRFTISRDNAKNTVYLQMNSLKPEDTAVYYCAAGFHKRVTPEILYDYWGQGTQVTVSS", "polyreactivity (PSR sort gate)": "low polyreactivity"}
{"item sequence": "QVQLVESGGGLVQAGGSLRLSCAASGRIFKLYAMGWYRQAPGKERELGAAISTSAGSTNYADSEKGRFTISRDNAKNTVYLQMNSLKPEDPAVYYCAVAGVSTYYTYYYWGQGTQVTVSS", "polyreactivity (PSR sort gate)": "low polyreactivity"}

----------
experiment: yeast display, Sf9 membrane polyspecificity reagent, FACS + sequencing; frameworks hold sequencing errors
measured attribute: polyreactivity (PSR sort gate)

{"item sequence": "QVQLVESGGGLVQAGGSLRLICAASGSIFPHYAMGWYRPAPGKERELVAAISRGGSTNYADSVKGRFTISRDNAKNTVYLQMNSLKPEDTAVYYCNALRYYSRFMYAVAYRYDYWGQGTQVTVSS", "observed value": "high polyreactivity"}
{"item sequence": "QVQLVESGGGLVQAGGSLRLSCAASGSIFYSNAMGWYRQAPGKERELVAAITRRGGSTYYADSVKGRFTISRDNAKNTVYLQMNSLKPEDTAVYYCAARYYRRFAHYGEYGYWGQGTQVTVSS", "observed value": "high polyreactivity"}
{"item sequence": "LVQLVESGGGLVQAGGSLRLSCAASGFIFAIYDMGWYRQAPGKERELVAAITSSSSTYADSVKGRFTISRDNAKNTVYLQMNSLKPEDTAVYYCAADTYSYRYSNDYWGQGTQVTVSS", "observed value": "low polyreactivity"}
{"item sequence": "QVQLVESGGGLVQAGGSLRLSCAASGSIFIQYAMGWYRQAPGKERELVAAINSSGGRTYYADSVKGRFTISRDNAKNTVYLQMNSLKPEDTAVYYCAADHGSSFDWGQGTQVTVSS", "observed value": "low polyreactivity"}
{"item sequence": "QVQLVESVGGLVQAGGSLRLSCAASGSIFNRYAMGRYRQAPGKERELVAAISTHTGTTYYADSVKGRFTISRDNAKNTVYLQMNSLKPEDTAVYYCAKRSRYGYGKSYDYWGQGTQVTVSS", "observed value": "high polyreactivity"}

----------
assay: yeast display, Sf9 membrane polyspecificity reagent, FACS + sequencing; frameworks hold sequencing errors
measured attribute: polyreactivity (PSR sort gate)

{"item sequence": "QVQLVESGGGLDQAGGSLRLSCAASGSIFPLYAKGWYRQAPGKERELVADITVSGGSTYYADSVKGRFTISRDYAKNTVYLQMNSLKPEDTAVYYCAKDNGPWFAYDYWGQGTHVTVSS", "observed value": "low polyreactivity"}
{"item sequence": "QVQLVESGGGLVQAGGSLRLSCAASGSIFSSYAMGWYRQAPGKERELVAAITSGGSTYYADSVKGRFTISRDNAKNTVYLLMNSLKPEDTAVYYCAARQVRTSILHMGYWGQGTQVTVSS", "observed value": "low polyreactivity"}

----------
experiment: yeast display, Sf9 membrane polyspecificity reagent, FACS + sequencing; frameworks hold sequencing errors
measured attribute: polyreactivity (PSR sort gate)

{"item sequence": "QVKLVESGGGLFQAGGSLRLSCAASVSIFYGNAIVWYRQAPGKERELVAAISSRGTRTYYADSVKGRFTISRDNAKNTVYLQMNSLNPEATAVYYCAAADYRFYNGPYSRRWLYGYWGQGTQVTVSS", "observed value": "high polyreactivity"}
{"item sequence": "QVQSVESAGVLVQAGGSLRLSCAASGFTFTWYAMGWYRKAPGKERELVATISRSGGRTYYADSVKGRFTISRDNAKNTVYLQMNSLKPEDTAVYYCAADTRNSPRYDYWGQGTQVTVSS", "observed value": "high polyreactivity"}

----------
assay: yeast display, Sf9 membrane polyspecificity reagent, FACS + sequencing; frameworks hold sequencing errors
measured attribute: polyreactivity (PSR sort gate)

{"item sequence": "QVQLVESGGGLVQAGGSLRLICAASGSTFSDNAMGWYRPAPGKERELVAAISRSGGSTYYADSVKGRFTLSRDNANNTVYLQMNSLKPEDTAFYYGATKSVLTGYDSWGQGTKVTVSS", "observed value": "high polyreactivity"}
{"item sequence": "QVQLQVSGGGLVQAGGSLRLSCAACGSNFLTAEMGWYLQAPGKERELVAAIATGTSTNYADSVKGRFTISRDNAKNTVYLQMNSLKREDTALYYCATYHYWGQGTQVTVSS", "observed value": "low polyreactivity"}
{"item sequence": "QVQLVESVGGLVQAGGSLRLSCAASGRIFVYYAMGWYRQAPGKERELVAAINSSGGRTYYADSVKGRVTISRDNAKNTVSLQMNSLQPEDTAVYYCAAVYRSWTSSNGRNYWGQGTQVTVAS", "observed value": "high polyreactivity"}
{"item sequence": "QVQLVESGGGLVQAGGSLRLSCAASGSIFSWNAMGWYRQAPGKERELVAAITGGGSTYYADSVKGRFTISRDNAKNTFYLQMNSLKPEDTAVYYCNALWYWDKLEYWGQGTQVTVSS", "observed value": "high polyreactivity"}
{"item sequence": "QVQLVESGGGLVQAGGSLRLSCAASGSTFPRYAMGWYRQAPGKEREFVAAISRRGGSTYYADSVKGRFTISRDNAKNTVYLQMNSLKPEDTAVYYCAKYLPTRVWGTGRFDYWGQGTQVTVSS", "observed value": "high polyreactivity"}
{"item sequence": "QVQLVESGGGLVQAGGSLRLSCAASGFTFYANAKGWYRQAPGKERELVAAIDQSGTSTNYADSVKGRFTISRDNAKNTVYLQMNSLKPDDTAVYYCAADSSFYYYPLILFWGDYWGQGTQVTVSS", "observed value": "low polyreactivity"}
{"item sequence": "QVQLVQSGGGLVQAGGSLRLSCAASGLIFYPYAMGWYRQAPGKERELVAAITSGDSTYYADSVKGRFTISRDNAKNTVYLQMNSLKPEDTAVYYCNAYQWGGRYWLVTYDYWGQGTQVTVSS", "observed value": "low polyreactivity"}
{"item sequence": "QVQLVESGGVLVQAVGSLRLSCAASGSISSYYAMGWYIQAPGKERELVAAITSGGRTYYADSVKGRFTISRDNAKNTVYLQMNSLKPEATAVYYCAADPDTWSPHYESLGYYWGQGTQVTVSS", "observed value": "high polyreactivity"}
{"item sequence": "QVQLVESGGGLVQAGGSLRLSCAASGFIFRDNAMGWYRQAPGKERELVAAISKSGGRTYYADSVKGRFTISRDNAKNTVYLLMNSLKPEDTAVYYCAADTYYNLGNYWGQGTQVTVSS", "observed value": "high polyreactivity"}
{"item sequence": "QVQLVESGGGLVQAGGSLRLSCAASGYIFTTNAMGWYRQAPGKERELVAAISSSGGSTYYADSVKGRFTISRDNAKNTVYLQMNSLKPEDTAVYYCAVRRSTGSRSPPMYYWGQGTQVTVSS", "observed value": "high polyreactivity"}
{"item sequence": "QVQLVESGGGLVQAGGSLRLSCAASGFIFPVNAMGWYRQAPGKERELVAGISRGGRTNYADSVKGRFTISRDNAKYSVYLQMNSLKPEDTAVYYCAAESYRAYKYDSWGQGTQVTVSS", "observed value": "low polyreactivity"}
